Numbers sourced from ChEMBL document CHEMBL5446079.

measure.name: IC50 (µM)
Just the number in µM, nothing appended.

Exercise: Lab note: need IC50 for "CN(C)CCCOc1ccc(-c2cc(NCCCn3cccn3)nc(S(C)(=O)=O)n2)cc1" on Nucleosome-remodeling factor subunit BPTF (Homo sapiens), anyone have it?
Solution: 30.3

====

measure.name: IC50 (nM)
Just the number in nM, nothing appended.

Exercise: Lab note: need IC50 for "CN1CCC(F)(Cn2cnc(-c3ccc(F)cn3)c2-c2ccnc3[nH]ccc23)CC1" on Casein kinase I isoform epsilon (Homo sapiens), anyone have it?
Solution: 27.3

====

# subject.of.test: Casein kinase I isoform delta (Homo sapiens, UniProt P48730)
# Sequence (P48730 whole entry, canonical isoform): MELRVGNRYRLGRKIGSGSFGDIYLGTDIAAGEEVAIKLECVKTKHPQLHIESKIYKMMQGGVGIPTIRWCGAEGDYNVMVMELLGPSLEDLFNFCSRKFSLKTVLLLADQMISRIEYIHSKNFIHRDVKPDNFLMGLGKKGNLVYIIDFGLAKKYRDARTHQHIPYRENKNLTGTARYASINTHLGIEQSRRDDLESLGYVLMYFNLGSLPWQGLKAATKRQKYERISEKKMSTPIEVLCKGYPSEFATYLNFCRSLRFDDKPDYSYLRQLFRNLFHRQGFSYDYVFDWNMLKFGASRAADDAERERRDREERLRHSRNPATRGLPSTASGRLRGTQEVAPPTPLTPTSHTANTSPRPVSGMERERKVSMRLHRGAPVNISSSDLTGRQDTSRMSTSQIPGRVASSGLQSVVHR
measure.name: IC50 (nM)
Just the number in nM, nothing appended.

Exercise: Please report the recorded IC50 for "CN1CCC(F)(Cn2cnc(-c3ccc(F)cn3)c2-c2ccnc3[nH]ccc23)CC1" .
Solution: 6.1

====

pIC50: −log10 of the molar value.
measure.name: pIC50

Exercise: Lab note: need pIC50 for "CN(c1ncccc1CNc1ccnc(-c2cc3cc(Cl)ccc3[nH]2)n1)S(C)(=O)=O" on SRSF protein kinase 2 (Homo sapiens, UniProt P78362), anyone have it?
Solution: < 5.00

====

measure.name: IC50 (nM)
Just the number in nM, nothing appended.

Exercise: Lab note: need IC50 for "CN(C)C(=O)Cn1cc(-c2ccc(-c3nnc4ccccn34)cc2)cn1" on CDK8/Cyclin C (Homo sapiens), anyone have it?
Solution: 671

====

measure.name: IC50

Exercise: Lab note: need IC50 for "CCc1ccc(-c2ncn(CC3(F)CCN(C)CC3)c2-c2ccnc3[nH]ccc23)nc1" on Casein kinase I isoform alpha (Homo sapiens, UniProt P48729), anyone have it?
Solution: > 3 µM

====

# subject.of.test: Dual specificity protein kinase CLK2 (Homo sapiens, UniProt P49760)
# Sequence (P49760 whole entry): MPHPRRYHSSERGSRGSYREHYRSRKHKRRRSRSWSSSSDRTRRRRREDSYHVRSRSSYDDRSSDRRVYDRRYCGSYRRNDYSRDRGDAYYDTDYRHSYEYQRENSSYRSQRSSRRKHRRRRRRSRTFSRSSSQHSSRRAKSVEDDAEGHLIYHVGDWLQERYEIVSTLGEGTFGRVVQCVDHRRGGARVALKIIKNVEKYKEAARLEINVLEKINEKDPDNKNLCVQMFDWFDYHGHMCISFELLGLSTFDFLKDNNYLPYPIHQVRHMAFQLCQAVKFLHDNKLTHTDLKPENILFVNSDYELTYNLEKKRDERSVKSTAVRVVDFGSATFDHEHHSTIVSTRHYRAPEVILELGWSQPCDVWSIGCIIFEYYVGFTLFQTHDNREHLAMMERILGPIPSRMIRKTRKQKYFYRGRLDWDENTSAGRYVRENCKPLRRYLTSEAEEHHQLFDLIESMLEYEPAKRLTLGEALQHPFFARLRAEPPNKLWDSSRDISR
measure.name: IC50

Exercise: Please report the recorded IC50 for "COc1cc(Nc2nc(C)cc(-c3cnn4nc(OC)ccc34)n2)cc(C(F)(F)F)c1" .
Solution: > 10 µM

====

measure.name: IC50 (nM)
Just the number in nM, nothing appended.

Exercise: Lab note: need IC50 for "CN1CCC(F)(Cn2cnc(-c3ccc(F)cn3)c2-c2ccnc3[nH]ccc23)CC1" on Casein kinase I isoform alpha (Homo sapiens, UniProt P48729), anyone have it?
Solution: 7.2

====

# subject.of.test: Bromodomain and PHD finger-containing protein 3 (Homo sapiens)
# Sequence (Q9ULD4 whole entry): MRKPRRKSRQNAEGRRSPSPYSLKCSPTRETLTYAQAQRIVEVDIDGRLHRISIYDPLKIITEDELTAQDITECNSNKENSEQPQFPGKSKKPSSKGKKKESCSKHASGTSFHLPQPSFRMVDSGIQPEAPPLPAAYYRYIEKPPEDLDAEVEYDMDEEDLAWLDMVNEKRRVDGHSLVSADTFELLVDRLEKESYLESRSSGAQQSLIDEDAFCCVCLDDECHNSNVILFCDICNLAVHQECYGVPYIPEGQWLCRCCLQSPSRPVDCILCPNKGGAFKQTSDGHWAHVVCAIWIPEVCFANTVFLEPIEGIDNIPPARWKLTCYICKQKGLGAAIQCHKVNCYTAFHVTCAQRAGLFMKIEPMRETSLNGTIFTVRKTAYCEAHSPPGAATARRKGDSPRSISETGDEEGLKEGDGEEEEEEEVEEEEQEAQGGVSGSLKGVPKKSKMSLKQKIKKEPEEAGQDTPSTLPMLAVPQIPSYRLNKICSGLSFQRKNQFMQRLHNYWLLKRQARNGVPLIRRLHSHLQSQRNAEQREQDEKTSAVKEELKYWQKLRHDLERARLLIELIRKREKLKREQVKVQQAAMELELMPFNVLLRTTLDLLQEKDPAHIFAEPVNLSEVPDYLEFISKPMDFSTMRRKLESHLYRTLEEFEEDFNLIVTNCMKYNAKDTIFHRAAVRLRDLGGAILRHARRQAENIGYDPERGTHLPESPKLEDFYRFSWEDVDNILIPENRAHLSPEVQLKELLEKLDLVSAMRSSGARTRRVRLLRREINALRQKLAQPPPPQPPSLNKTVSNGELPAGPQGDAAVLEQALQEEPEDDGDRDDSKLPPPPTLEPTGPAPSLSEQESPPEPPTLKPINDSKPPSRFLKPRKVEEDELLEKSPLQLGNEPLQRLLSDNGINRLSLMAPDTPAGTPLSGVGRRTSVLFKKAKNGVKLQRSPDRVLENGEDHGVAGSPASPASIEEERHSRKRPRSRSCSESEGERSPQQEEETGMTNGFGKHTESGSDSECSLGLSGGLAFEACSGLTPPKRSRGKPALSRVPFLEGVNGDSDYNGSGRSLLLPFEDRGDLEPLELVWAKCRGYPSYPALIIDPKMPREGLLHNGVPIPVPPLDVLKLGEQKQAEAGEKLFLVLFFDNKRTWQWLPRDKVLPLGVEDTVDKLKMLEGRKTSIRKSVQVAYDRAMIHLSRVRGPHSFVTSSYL
measure.name: IC50

Exercise: Lab note: need IC50 for "CCc1cc2cc(NS(=O)(=O)c3ccc(C#N)cc3)ccc2n(CC)c1=O" on Bromodomain and PHD finger-containing protein 3 (Homo sapiens), anyone have it?
Solution: > 100 µM

====

measure.name: IC50

Exercise: Lab note: need IC50 for CCn1c(-c2nc3cc(C(=O)N4CCCC(N)C4)ccc3n2C)cc2ccccc21 (stereo unspecified) on Protein-arginine deiminase type-4 (Homo sapiens, UniProt Q9UM07), anyone have it?
Solution: > 100 µM

====

# subject.of.test: Casein kinase I isoform delta (Homo sapiens)
pIC50: −log10 of the molar value.
measure.name: pIC50

Exercise: Lab note: need pIC50 for "CCc1ccc(-c2ncn(CC3(F)CCN(C)CC3)c2-c2ccnc3[nH]ccc23)nc1" on Casein kinase I isoform delta (Homo sapiens), anyone have it?
Solution: < 5.52

====

measure.name: IC50

Exercise: Lab note: need IC50 for "CCc1cc2cc(NS(=O)(=O)c3ccc(C#N)cc3)ccc2n(CC)c1=O" on Bromodomain-containing protein 1 (Homo sapiens, UniProt O95696), anyone have it?
Solution: > 100 µM
